- System: Huh-7
- experiment notes: Antiproliferative activity against human Huh-7 cells under 10 J/cm2 light irradiation at 660 nm by CCK8 assay
- Type: functional, cell-based
- experimental parameters: Huh-7, light or radiation study
quantity name: IC50 (µM)
Form entry: value (µM) — number only.

// query Which measured IC50 value corresponds to `C=Cc1c(C)c2cc3nc(c(CC(=O)O)c4[nH]c(cc5nc(cc1[nH]2)C(C)=C5CC)c(C)c4C(=O)O)[C@@H](CCC(=O)O)[C@@H]3C` ?
// result 18

====

- experiment notes: Antiproliferative activity against human HUVEC cells under dark condition by CCK8 assay
- Assay type: toxicity, cell-based
pIC50: −log10 of the molar value.
quantity name: pIC50

// query Can you share its pIC50? I mean this compound: C=Cc1c(C)c2cc3nc(c(CC(=O)O)c4[nH]c(cc5nc(cc1[nH]2)C(C)=C5CC)c(C)c4C(=O)O)[C@@H](CCC(=O)O)[C@@H]3C [CHLORIN E6]
// result < 3.70

====

- Test system: HepG2
- experiment notes: Antiproliferative activity against human HepG2 cells under 10 J/cm2 light irradiation at 660 nm by CCK8 assay
- Assay type: functional, cell-based
- experimental parameters: HepG2, light or radiation study
quantity name: pIC50
Units for pIC50: none; it is -log10 of a concentration expressed in mol/L.

// query Request - read-out pIC50 | tested on HepG2 | compound C=Cc1c(C)c2cc3nc(c(CC(=O)O)c4[nH]c(cc5nc(cc1[nH]2)C(C)=C5CC)c(C)c4C(=O)O)[C@@H](CCC(=O)O)[C@@H]3C [CHLORIN E6]
// result 4.80
